test system: A549; experiment: Cytotoxicity against human A549 cells after 48 hrs by SRB method; assay type: functional, cell-based; conditions: A549, 48 h
READOUT NAME: IC50

> print(dat)
                                   molecule  endpoint.result
1  C=C1C(=O)[C@@]23C(CC[C@@H]1[C@H]2O)[C@]1(C)CC[C@@H](O)C(C)(C)[C@H]1C[C@H]3O (stereo partly drawn) [PSEURATA A]          2.92 µM
2  C=C1C(=O)[C@@]23[C@H](O)C[C@@H]4C(C)(C)[C@@H](O)CC[C@@]4(C)[C@@H]2C[C@H](O)[C@@H]1[C@H]3O [3-EPIPSEURATA B]          > 10 µM

Now for the molecule whose IC50 we want.
stdin: Which IC50 value belongs to C=C1C(=O)[C@@]23[C@H](O)C[C@@H]4C(C)(C)[C@H](O)CC[C@@]4(C)[C@@H]2C[C@H](OC(C)=O)[C@@H]1[C@H]3O ?
stdout: > 10 µM

----------
tested on: A549; test: Cytotoxicity against human A549 cells after 48 hrs by SRB method; type: functional, cell-based; details: A549, 48 h
Can you tell me pIC50 for the items I'm about to list?
Give bare numbers, as −log10 of the molar value.

Below, each entry is followed by its recorded pIC50 result.
> print(dat)
                                   compound  test.target  endpoint.result
1  C=C1C(=O)[C@@]23[C@H](O)C[C@@H]4C(C)(C)C(=O)CC[C@@]4(C)[C@@H]2CC[C@@H]1[C@H]3OC(C)=O         A549             5.21
2  C=C1C(=O)[C@@]23C(CC[C@@H]1[C@H]2O)[C@]1(C)CC[C@H](O)C(C)(C)[C@H]1C[C@H]3O (stereo partly specified)         A549             5.03
3  C=C1C(=O)[C@@]23[C@H](O)C[C@@H]4C(C)(C)C(=O)CC[C@@]4(C)[C@@H]2CC[C@@H]1[C@H]3O         A549             5.27

stdin: Which pIC50 value belongs to C=C1C(=O)[C@@]23[C@@H]4OC(C)(C)O[C@@H]2C[C@@H]2C(C)(C)[C@H](O)CC[C@@]2(C)[C@@H]3C[C@H](O)[C@@H]14 ?
stdout: 5.22

----------
test system: PC-3; assay: Cytotoxicity against human PC3 cells after 48 hrs by SRB method; assay type: functional, cell-based; conditions: PC-3, 48 h
READOUT NAME: IC50

Below, each entry is followed by its recorded IC50 result.
> print(dat)
                                   compound  test.target  endpoint.result
1  C=C1C(=O)[C@@]23[C@H](O)C[C@@H]4C(C)(C)[C@H](O)CC[C@@]4(C)[C@@H]2C[C@H](O)[C@@H]1[C@H]3O         PC-3          > 10 µM
2  COC[C@@H]1C(=O)[C@@]23[C@H](O)C[C@@H]4C(C)(C)[C@@H](OC(C)=O)CC[C@@]4(C)[C@@H]2CC(=O)[C@@H]1[C@H]3O         PC-3          7.42 µM
3  C=C1C(=O)[C@@]23[C@H](O)C[C@@H]4C(C)(C)[C@@H](OC(C)=O)C[C@H](O)[C@@]4(C)[C@@H]2CC(=O)[C@@H]1[C@H]3O         PC-3          > 10 µM
4  C=C1C(=O)[C@@]23[C@H](O)C[C@@H]4C(C)(C)[C@H](O)CC[C@@]4(C)[C@@H]2C[C@H](OC(C)=O)[C@@H]1[C@H]3O         PC-3          > 10 µM
5  C=C1C(=O)[C@@]23[C@H](O)C[C@@H]4C(C)(C)C(=O)CC[C@@]4(C)[C@@H]2CC[C@@H]1[C@H]3O         PC-3          > 10 µM

Now for the compound whose IC50 we want.
stdin: Which IC50 value belongs to C=C1C(=O)[C@@]23C(CC[C@@H]1[C@H]2O)[C@]1(C)CC[C@@H](O)C(C)(C)[C@H]1C[C@H]3O (stereo partly specified) ?
stdout: > 10 µM
